Target: Nav 1.7 (Homo sapiens (Human))
Sequence (Q15858 whole entry): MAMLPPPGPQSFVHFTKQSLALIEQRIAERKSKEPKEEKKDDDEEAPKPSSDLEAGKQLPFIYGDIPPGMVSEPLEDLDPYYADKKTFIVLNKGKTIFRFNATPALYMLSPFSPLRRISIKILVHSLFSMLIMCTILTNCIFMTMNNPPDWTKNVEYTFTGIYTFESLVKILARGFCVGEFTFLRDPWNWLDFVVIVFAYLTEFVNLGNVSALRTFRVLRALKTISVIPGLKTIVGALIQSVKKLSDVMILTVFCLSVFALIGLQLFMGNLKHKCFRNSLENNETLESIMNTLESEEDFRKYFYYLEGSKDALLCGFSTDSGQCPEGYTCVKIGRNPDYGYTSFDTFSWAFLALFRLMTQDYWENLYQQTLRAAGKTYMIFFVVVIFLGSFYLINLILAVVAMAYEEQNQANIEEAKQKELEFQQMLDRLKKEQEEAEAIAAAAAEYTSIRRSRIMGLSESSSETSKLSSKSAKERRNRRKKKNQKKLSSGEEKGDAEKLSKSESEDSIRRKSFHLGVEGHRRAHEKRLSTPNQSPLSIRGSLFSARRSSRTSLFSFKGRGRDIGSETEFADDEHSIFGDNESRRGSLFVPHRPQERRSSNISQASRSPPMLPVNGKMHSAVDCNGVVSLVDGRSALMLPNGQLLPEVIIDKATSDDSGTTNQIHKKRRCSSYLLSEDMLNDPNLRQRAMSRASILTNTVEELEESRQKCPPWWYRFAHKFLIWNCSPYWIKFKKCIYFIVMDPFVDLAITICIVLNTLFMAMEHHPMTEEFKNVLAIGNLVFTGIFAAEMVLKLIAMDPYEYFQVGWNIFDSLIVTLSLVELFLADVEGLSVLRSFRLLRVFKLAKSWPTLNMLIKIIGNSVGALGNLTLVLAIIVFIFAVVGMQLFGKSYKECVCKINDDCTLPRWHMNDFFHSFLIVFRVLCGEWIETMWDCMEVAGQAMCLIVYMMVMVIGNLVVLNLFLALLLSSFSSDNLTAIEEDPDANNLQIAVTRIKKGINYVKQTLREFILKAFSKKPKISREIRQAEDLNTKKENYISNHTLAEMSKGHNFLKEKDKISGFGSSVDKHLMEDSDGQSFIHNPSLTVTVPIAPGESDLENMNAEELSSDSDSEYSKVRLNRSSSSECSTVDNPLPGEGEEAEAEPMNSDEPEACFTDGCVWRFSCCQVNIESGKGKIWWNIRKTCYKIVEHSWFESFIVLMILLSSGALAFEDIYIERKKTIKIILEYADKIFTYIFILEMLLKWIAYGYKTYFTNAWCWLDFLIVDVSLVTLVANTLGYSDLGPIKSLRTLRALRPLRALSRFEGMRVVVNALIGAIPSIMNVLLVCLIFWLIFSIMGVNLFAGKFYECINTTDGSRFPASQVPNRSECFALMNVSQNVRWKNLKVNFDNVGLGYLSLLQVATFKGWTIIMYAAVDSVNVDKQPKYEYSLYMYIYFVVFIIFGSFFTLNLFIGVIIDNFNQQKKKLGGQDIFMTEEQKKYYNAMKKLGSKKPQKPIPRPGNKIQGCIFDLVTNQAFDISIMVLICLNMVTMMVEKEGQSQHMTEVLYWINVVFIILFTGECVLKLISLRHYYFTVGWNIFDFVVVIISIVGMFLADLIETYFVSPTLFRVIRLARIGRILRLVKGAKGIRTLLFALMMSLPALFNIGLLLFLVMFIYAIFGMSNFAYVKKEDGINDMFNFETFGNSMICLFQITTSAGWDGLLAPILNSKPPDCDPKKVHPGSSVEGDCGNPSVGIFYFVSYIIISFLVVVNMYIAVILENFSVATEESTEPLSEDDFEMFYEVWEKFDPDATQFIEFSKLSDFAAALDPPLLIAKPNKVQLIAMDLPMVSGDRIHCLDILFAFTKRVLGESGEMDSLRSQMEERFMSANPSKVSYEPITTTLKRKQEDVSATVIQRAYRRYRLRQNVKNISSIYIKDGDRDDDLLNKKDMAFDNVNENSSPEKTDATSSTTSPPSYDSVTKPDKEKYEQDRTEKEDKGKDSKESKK
Experiment: Nav 1.7 in vitro assay (IonWorks Quattro population patch-clamp)
Conditions: 293 cells stably transfected with Nav 1.7; 26th pulse to -20 mV, 5 Hz
measurement.name: pIC50
Give bare numbers, as −log10 of the molar value.

As a guide, the following entries are already answered.
# molecule, target.desc, measured.result
rows = [
    ("Cn1nccc1-c1cc(C(F)(F)F)ccc1-c1cn(C)c2cc(S(=O)(=O)Nc3nc(Br)ns3)ccc12", "Nav 1.7 (Homo sapiens (Human))", 5.86),
    ("Cn1cc(-c2ccc(C(F)(F)F)cc2C#N)c2ccc(S(=O)(=O)Nc3ncns3)cc21", "Nav 1.7 (Homo sapiens (Human))", 6.26),
    ("Cn1cc(-c2ccc(C(F)(F)F)cc2C2=CCNCC2)c2ccc(S(=O)(=O)Nc3cscn3)cc21", "Nav 1.7 (Homo sapiens (Human))", 5.85),
    ("Cn1nccc1-c1cc(Cl)ccc1-c1cn(C)c2cc(S(=O)(=O)Nc3ncns3)ccc12", "Nav 1.7 (Homo sapiens (Human))", 6.60),
    ("Cn1cc(-c2ccc(C(F)(F)F)cc2C2=CCNCC2)c2ccc(S(=O)(=O)Nc3nccs3)cc21 [Example 65, 2,2,2-Trifluoroacetate]", "Nav 1.7 (Homo sapiens (Human))", 6.57),
]

// batch mode: one pIC50 value per listed entry
1. Cn1nccc1-c1cc(C(F)(F)F)ccc1-c1cn(C)c2cc(S(=O)(=O)Nc3ccncn3)ccc12
2. Cn1cc(-c2cc(F)ccc2F)c2ccc(S(=O)(=O)Nc3ncns3)cc21

Key:
1. 6.08
2. 5.67

// batch mode: one pIC50 value per listed entry
1. CC(=O)n1cc(-c2ccc(C(F)(F)F)cc2-c2ccnn2C)c2ccc(S(=O)(=O)Nc3ncns3)cc21
2. Cn1nccc1-c1cc(C(F)(F)F)ccc1-c1c[nH]c2cc(S(=O)(=O)Nc3ncns3)ccc12

Key:
[7.30, 6.14]

* * *

Biological target: Nav 1.7 (Homo sapiens (Human))
Test: Nav 1.7 in vitro assay (IonWorks Quattro population patch-clamp)
Conditions: 293 cells stably transfected with Nav 1.7; 26th pulse to -20 mV, 5 Hz
Where a name gives a salt, the structure may show the parent alone.
Checkbox rule: IC50 lower than 400 nM = MET; IC50 not lower than 400 nM = NOT MET.

Some solved entries appear below for comparison.
# molecule, class.label
data = [
    ("Cn1nccc1-c1cc(Cl)ccc1-n1cnc2cc(S(=O)(=O)Nc3ncns3)ccc21", "NOT MET"),
    ("Cn1cc(-c2ccc(C(F)(F)F)cc2C2=CCNCC2)c2ccc(S(=O)(=O)Nc3ncns3)cc21", "MET"),
    ("Cn1cc(-c2cccc3c2CCNC3)c2ccc(S(=O)(=O)Nc3ncns3)cc21 [Example 53, Hydrochloride]", "MET"),
    ("Cn1cc(-c2cc(Br)cc(C(F)(F)F)c2)c2ccc(S(=O)(=O)Nc3ncns3)cc21", "NOT MET"),
    ("Cn1cc(-c2ccc(C(F)(F)F)cc2Cl)c2ccc(S(=O)(=O)Nc3ncns3)cc21", "NOT MET"),
    ("Cn1nccc1-c1cc(Cl)ccc1-c1c[nH]c2cc(S(=O)(=O)Nc3ncns3)ccc12", "NOT MET"),
]

Here's the next entry for you.
Exercise: is_below(IC50, 400 nM) for Cn1cc(-c2ccc(C(F)(F)F)cc2-c2ccn(C3CNC3)n2)c2ccc(S(=O)(=O)Nc3ncns3)cc21 [Example 19, Hydrochloride] ?
Key: MET

* * *

Target: Nav 1.7 (Homo sapiens (Human))
Test: Nav 1.7 in vitro assay (IonWorks Quattro population patch-clamp)
Type: cell-based
Conditions: HEK293; 293 cells stably transfected with Nav 1.7; at 4.9 μM
measurement.name: inhibition at 4.9 µM (%)
One number for each entry, in %.

# compound, inhibition at 4.9 µM / %
records = [
    ("Cn1cc(-c2ccc(C(F)(F)F)cc2)c2ccc(S(=O)(=O)Nc3ncns3)cc21 [Example 57]", 23.3),
    ("COc1ccc(-c2cn(C)c3cc(S(=O)(=O)Nc4ncns4)ccc23)cn1 [Example 61]", 37.2),
    ("Cc1sc(NS(=O)(=O)c2ccc3c(-c4ccc(C(F)(F)F)cc4-c4ccnn4C)cn(C)c3c2)nc1C(F)(F)F [Example 20]", 36.2),
    ("COc1cc(-c2cn(C)c3cc(S(=O)(=O)Nc4ncns4)ccc23)c(F)cn1 [Example 56]", 20.8),
]

// batch mode: one inhibition at 4.9 µM value per listed entry
1. Cn1cc(-c2cc3ccccc3o2)c2ccc(S(=O)(=O)Nc3ncns3)cc21 [Example 59]
2. COc1ccc(-c2cn(C)c3cc(S(=O)(=O)Nc4ncns4)ccc23)cc1C#N [Example 60]
3. Cn1cc(-c2cnn(C3CC3)c2)c2ccc(S(=O)(=O)Nc3ncns3)cc21 [Example 55]
4. Cn1cc(-c2ccccc2OC(F)(F)F)c2ccc(S(=O)(=O)Nc3ncns3)cc21 [Example 58]

Key:
[36.2, 24.7, 20.5, 25.1]

* * *

Molecular target: Nav 1.5 (Homo sapiens (Human), UniProt Q14524)
Sequence (Q14524 whole entry): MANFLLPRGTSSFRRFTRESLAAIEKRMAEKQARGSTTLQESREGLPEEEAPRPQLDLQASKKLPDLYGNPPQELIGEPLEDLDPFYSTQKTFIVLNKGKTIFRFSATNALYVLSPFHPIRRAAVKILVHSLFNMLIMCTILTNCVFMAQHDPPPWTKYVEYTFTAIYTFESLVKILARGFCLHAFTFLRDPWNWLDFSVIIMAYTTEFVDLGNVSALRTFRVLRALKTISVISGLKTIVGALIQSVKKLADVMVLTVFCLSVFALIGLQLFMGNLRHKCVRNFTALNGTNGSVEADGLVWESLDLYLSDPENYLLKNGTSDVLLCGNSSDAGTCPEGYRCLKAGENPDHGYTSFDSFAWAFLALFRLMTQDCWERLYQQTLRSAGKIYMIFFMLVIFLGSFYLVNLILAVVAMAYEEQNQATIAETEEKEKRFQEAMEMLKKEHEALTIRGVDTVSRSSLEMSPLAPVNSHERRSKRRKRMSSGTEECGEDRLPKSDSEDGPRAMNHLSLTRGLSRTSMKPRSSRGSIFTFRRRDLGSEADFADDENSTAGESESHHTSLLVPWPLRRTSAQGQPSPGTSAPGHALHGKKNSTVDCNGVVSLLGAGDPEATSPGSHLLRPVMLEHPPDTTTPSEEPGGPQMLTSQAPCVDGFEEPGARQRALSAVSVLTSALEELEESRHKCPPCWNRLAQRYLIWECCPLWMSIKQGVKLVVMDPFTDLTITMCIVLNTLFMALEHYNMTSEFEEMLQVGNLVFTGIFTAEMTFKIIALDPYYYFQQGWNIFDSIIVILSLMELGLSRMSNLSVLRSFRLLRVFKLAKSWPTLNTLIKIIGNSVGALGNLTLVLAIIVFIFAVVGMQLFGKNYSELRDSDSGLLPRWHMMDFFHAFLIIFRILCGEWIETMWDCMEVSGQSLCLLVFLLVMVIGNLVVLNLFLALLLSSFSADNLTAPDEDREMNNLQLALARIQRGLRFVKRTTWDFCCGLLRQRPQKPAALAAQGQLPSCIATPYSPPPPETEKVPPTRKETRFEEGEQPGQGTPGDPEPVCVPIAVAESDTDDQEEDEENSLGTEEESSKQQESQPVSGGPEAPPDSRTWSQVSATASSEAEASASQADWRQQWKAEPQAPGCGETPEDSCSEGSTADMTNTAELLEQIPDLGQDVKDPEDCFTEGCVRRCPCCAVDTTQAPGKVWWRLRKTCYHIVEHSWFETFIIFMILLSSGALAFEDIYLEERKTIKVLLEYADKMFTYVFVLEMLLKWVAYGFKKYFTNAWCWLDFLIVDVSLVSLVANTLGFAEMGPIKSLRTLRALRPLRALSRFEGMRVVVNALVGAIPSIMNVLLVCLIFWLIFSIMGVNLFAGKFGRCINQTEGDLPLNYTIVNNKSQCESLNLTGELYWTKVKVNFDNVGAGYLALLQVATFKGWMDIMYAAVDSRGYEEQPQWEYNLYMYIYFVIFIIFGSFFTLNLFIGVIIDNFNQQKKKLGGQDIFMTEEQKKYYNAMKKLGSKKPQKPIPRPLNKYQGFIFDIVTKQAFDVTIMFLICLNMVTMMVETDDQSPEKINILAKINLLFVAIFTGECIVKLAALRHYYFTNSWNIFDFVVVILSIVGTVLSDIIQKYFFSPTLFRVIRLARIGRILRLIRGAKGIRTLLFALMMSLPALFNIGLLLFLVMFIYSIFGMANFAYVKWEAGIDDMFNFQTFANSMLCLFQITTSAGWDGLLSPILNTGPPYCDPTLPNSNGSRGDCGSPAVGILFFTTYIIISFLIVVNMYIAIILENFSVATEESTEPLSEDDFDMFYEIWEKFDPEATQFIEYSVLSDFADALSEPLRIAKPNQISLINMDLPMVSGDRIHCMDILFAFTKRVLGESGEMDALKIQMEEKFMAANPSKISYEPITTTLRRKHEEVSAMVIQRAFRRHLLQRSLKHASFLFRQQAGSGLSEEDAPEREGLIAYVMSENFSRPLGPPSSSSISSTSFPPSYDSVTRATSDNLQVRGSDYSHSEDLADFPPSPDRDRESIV
Experiment: Nav 1.5 in vitro assay (IonWorks Quattro population patch-clamp)
Format: cell-based
Details: 293 cells stably transfected with Nav 1.5; 26th pulse to -20 mV, 5 Hz
pIC50: −log10 of the molar value. Counter-ions that a name gives are not always drawn.
measurement.name: pIC50

# compound, pIC50
data = [
    ("Cn1cc(-c2cnn(C3CC3)c2)c2ccc(S(=O)(=O)Nc3ncns3)cc21 [Example 55]", "< 5.00"),
    ("Cc1cnc(N)c(-c2cn(C)c3cc(S(=O)(=O)Nc4ncns4)ccc23)c1 [Example 45]", "< 5.00"),
    ("Cn1cc(-c2cccc3c2CCNC3)c2ccc(S(=O)(=O)Nc3ncns3)cc21 [Example 53, Hydrochloride]", "< 5.00"),
    ("COc1cc(OC)cc(-c2cn(C)c3cc(S(=O)(=O)Nc4ncns4)ccc23)c1 [Example 29]", "< 5.00"),
    ("Cn1nccc1-c1cc(Cl)ccc1-c1c[nH]c2cc(S(=O)(=O)Nc3ncns3)ccc12 [Example 1]", "< 5.00"),
    ("CC#Cc1cncc(-c2cn(C)c3cc(S(=O)(=O)Nc4ncns4)ccc23)c1 [Example 14]", "< 5.00"),
    ("CC(=O)n1cc(-c2ccc(C(F)(F)F)cc2-c2ccnn2C)c2ccc(S(=O)(=O)Nc3ncns3)nc21 [Example 27]", "< 5.00"),
]

Exercise: Using the record for Cn1nccc1-c1cn(C)c2cc(S(=O)(=O)Nc3ncns3)ccc12 [Example 52] , report its pIC50.
Key: < 5.00

* * *

So I've got a bunch of compounds here, and I need their IC50 values.
Target: UniProt:Q14524
Assay: Nav 1.5 in vitro assay (IonWorks Quattro population patch-clamp)
Format: cell-based
Conditions: 293 cells stably transfected with Nav 1.5; 26th pulse to -20 mV, 5 Hz

// batch mode: one IC50 value per listed entry
1. Cn1nccc1-c1cc(C(F)(F)F)ccc1-c1cn(C)c2cc(S(=O)(=O)Nc3nccs3)ccc12
2. Cn1cc(-c2ccc(C(F)(F)F)cc2C2=CCNCC2)c2ccc(S(=O)(=O)Nc3cscn3)cc21
3. Cc1sc(NS(=O)(=O)c2ccc3c(-c4ccc(C(F)(F)F)cc4-c4ccnn4C)cn(C)c3c2)nc1C(F)(F)F
4. COc1ccc(-c2cn(C)c3cc(S(=O)(=O)Nc4ncns4)ccc23)cn1

Key:
1: > 10 µM; 2: > 10 µM; 3: > 10 µM; 4: > 10 µM

* * *

Target: Nav 1.5 (Homo sapiens (Human), UniProt Q14524)
Experiment: Nav 1.5 in vitro assay (IonWorks Quattro population patch-clamp)
Format: cell-based
Conditions: 293 cells stably transfected with Nav 1.5; 26th pulse to -20 mV, 5 Hz
So I've got a bunch of compounds here, and I need their IC50 values.

As a guide, the following entries are already answered.
# smiles.str, IC50
data = [
    ("Cn1cc(-c2ccc(C(F)(F)F)c(Cl)c2)c2ccc(S(=O)(=O)Nc3ncns3)cc21", "> 10 µM"),
    ("Cn1cc(-c2ccc(F)c(C#N)c2)c2ccc(S(=O)(=O)Nc3ncns3)cc21", "7.63 µM"),
    ("COC(=O)n1cc(-c2ccc(C(F)(F)F)cc2-c2ccnn2C)c2ccc(S(=O)(=O)Nc3ncns3)cc21", "> 10 µM"),
    ("Cn1cc(-c2ccc(Br)cc2C(F)(F)F)c2ccc(S(=O)(=O)Nc3ncns3)cc21", "> 10 µM"),
    ("Cn1cc(-c2ccncc2Cl)c2ccc(S(=O)(=O)Nc3ncns3)cc21", "> 10 µM"),
]

// batch mode: one IC50 value per listed entry
1. Cn1cc(-c2ccccc2OC(F)(F)F)c2ccc(S(=O)(=O)Nc3ncns3)cc21
2. Cn1cc(-c2ccc(C(F)(F)F)cc2Cl)c2ccc(S(=O)(=O)Nc3ncns3)cc21
3. COc1ccc(-c2cn(C)c3cc(S(=O)(=O)Nc4ncns4)ccc23)c2ccccc12
4. Cn1cc(-c2ccc(C(F)(F)F)cc2C2=CCNCC2)c2ccc(S(=O)(=O)Nc3ncns3)cc21
5. Cn1cc(-c2ccc(C(F)(F)F)cc2)c2ccc(S(=O)(=O)Nc3ncns3)cc21
6. Cn1cc(-c2cccc(S(C)(=O)=O)c2)c2ccc(S(=O)(=O)Nc3ncns3)cc21
7. CC(C)n1cc(-c2ccc(C(F)(F)F)cc2-c2ccnn2C)c2ccc(S(=O)(=O)Nc3ncns3)cc21

Key:
["> 10 µM", "> 10 µM", "> 10 µM", "> 10 µM", "> 10 µM", "> 10 µM", "> 10 µM"]

Just for reference, patent US9079902B2 is where these values come from.
